# reported z-score; entries follow
assay: fission yeast growth modulation, primary screen, strain 972, OD600, 24 h, no modulator (AID 1090);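 also: basal condition with compound alone and no growth modifier present; test concentration not given here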; settings: S. pombe 972 growth, higher = more signal, called active from +8 up or from −8 down
Answer with a bare number; do not write a unit.

CN1C(=O)C2C=CC(C(O)c3ccco3)N(Nc3ccccc3)C2C1=O (stereo not given) :: 0.899
COCC(=C=CC[C@@H](O)c1cccc(OCCO)c1)C[C@@H](O)c1ccccn1 :: -0.416
C=C(CCCC)/C(=C/C[C@H](OC(C)=O)c1ccccc1OCCO)c1cc(C(=O)OC)ccc1OC :: -0.886
CC(C)C(=C=CC[C@H](O)c1ccc(OCCO)cc1)CCO :: -1.27

// moving on: another record for z-score
response.value for CN1C(=O)C2C=CC(C(O)c3ccccc3)N(N(c3ccccc3)c3ccccc3)C2C1=O (stereo not given) (field: z-score) = 0.808

====

assay: P. aeruginosa biofilm formation inhibitors, primary screen, PAO1 strain, BacTiter-Glo luminescence, LB-PBS (AID 1144); details: 12 h, higher = more signal
Would you please tag the item 1.0 when its z-score is -0.6 or above, and 0.0 when it is below?

// below: answered compounds
O=C1C2C=CC(C(O)c3cc(C(F)(F)F)cc(C(F)(F)F)c3)N(n3cnnc3)C2C(=O)N1Cc1ccccc1 (stereo unspecified) :: 0.0
O=C(NCCN1CCOCC1)[C@@H]1c2ccccc2C(=O)N(C2CCCCC2)[C@H]1c1ccc(CO)cc1 :: 1.0
Cc1ccc(N2C(=O)c3ccccc3[C@@H](C(=O)NC3CC3)[C@@H]2c2ccc(CO)cc2)nc1 :: 0.0
NCCCCCCNC(=O)[C@@H]1C[C@@H]2C(=O)NCC(=O)N2[C@@H]1c1ccc(O)cc1 :: 0.0
C=CCOC(=O)[C@H]1[C@@H]2C(=O)O[C@@H](c3ccccc3)[C@@H](c3ccccc3)N2[C@@H](c2ccc(OCCOC(=O)[C@@H]3C[C@@H]4C(=O)N[C@@H](CC(C)C)C(=O)N4[C@@H]3c3ccc(O)cc3)cc2)[C@]12C(=O)Nc1ccccc12 :: 0.0
CC(C)N1C(=O)c2ccccc2[C@](C)(C(=O)NCCN2CCOCC2)[C@@H]1c1ccc(CO)cc1 :: 1.0
[N-]=[N+]=Nc1ccccc1[C@H]1OC(c2ccc(OCCCO)cc2)=N[C@@]1(CCS(=O)(=O)c1ccccc1)C(N)=O :: 1.0
Cc1nc2cc(Br)ccc2c(=O)o1 :: 0.0

Input: Kindly determine if z-score recorded for COCCCNC(=O)[C@]1(CCC(=O)OC(C)(C)C)N=C(c2ccc(OCCCO)cc2)O[C@@H]1c1ccccc1CN=[N+]=[N-] is above or exactly -0.6.
Output: 1.0

====

biological target: Torsin-1A (Homo sapiens) (UniProt O14656); experiment: torsin A binders from cell lysate, primary screen, small-molecule microarray, wild-type, 635/667 nm (AID 1149); conditions: COS7 hTOR1A-WT lysate, 635 nm fluorescence, higher = more signal
Sequence (O14656 whole entry, looked up): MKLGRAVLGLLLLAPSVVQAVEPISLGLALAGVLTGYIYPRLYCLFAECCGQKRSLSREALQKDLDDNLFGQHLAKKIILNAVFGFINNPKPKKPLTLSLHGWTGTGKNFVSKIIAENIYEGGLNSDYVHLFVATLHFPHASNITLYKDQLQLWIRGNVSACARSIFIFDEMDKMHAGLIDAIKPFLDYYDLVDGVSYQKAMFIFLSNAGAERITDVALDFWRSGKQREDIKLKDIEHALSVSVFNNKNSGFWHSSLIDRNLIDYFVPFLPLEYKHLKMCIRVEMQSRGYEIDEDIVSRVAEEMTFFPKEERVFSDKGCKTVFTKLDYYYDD
Would you please tag the item true (1) when its composite z-score is 0.4 or above, and false (0) when it is below?

C=C(/C(=C/C[C@H](OC(C)=O)c1ccc(CO)o1)c1cc(C(=O)OC)ccc1OC)C(C)C :: false (0)

Input: Kindly determine if composite z-score recorded for COc1ccccc1CN1C(=O)c2ccccc2[C@@H](C(=O)NC2CC2)[C@@H]1c1ccc(CO)cc1 is above or exactly 0.4.
Output: true (1)
